Recorded Peak Area, t0 values for a group of compounds are listed next.
System: CD-1 mouse liver microsomes
Conditions: 0 min, pH 7.4
Method: Microsomal stability (and thus susceptibility to metabolism) was tested using microsomes derived from CD-1 mouse liver. According to the applied protocol, both phases of metabolism were activated by the addition of cofactors NADPH and UDP-GlcUA. […] All compounds were tested in duplicates, and their concentrations were determined using the HPLC-MS/MS method (Section 3.7.1). […]

Use these answered entries as a reference point.
Compound: COc1ccc2cc(C(C)N(O)C(C)=O)ccc2c1 (stereo not shown)
Peak Area, t0: 43.9 ± 3.2 ×10^3
//
Compound: O=C(O)Cc1ccccc1Nc1c(Cl)cccc1Cl
Peak Area, t0: 126.2 ± 2.8 ×10^3
//
Compound: CC(=O)N(O)C(C)c1ccc(CC(C)C)cc1 (stereo not shown)
Peak Area, t0: 60.0 ± 1.4 ×10^3
//
Compound: O=C(NO)NCc1ccccc1Nc1c(Cl)cccc1Cl
Peak Area, t0: 1033.6 ± 42.5 ×10^3
//
Compound: COc1ccc2c(c1)c(CC(=O)O)c(C)n2C(=O)c1ccc(Cl)cc1 [Indomethacin, indomethacin, reference compound]
Peak Area, t0: 241.9 ± 2.5 ×10^3
//
Compound: CC(NC(=O)NO)c1ccc(-c2ccccc2)c(F)c1 (stereo not shown)
Peak Area, t0: 16.5 ± 3.1 ×10^3

Now, please, on to the next compound.
Recall the recorded Peak Area, t0 for COc1ccc2c(c1)c(CNC(=O)NO)c(C)n2C(=O)c1ccc(Cl)cc1 with CD-1 mouse liver microsomes and state it. 131.5 ± 16.8 ×10^3
